Reference source for all entries: patent US8618163B2

Target: FPRL1 (Homo sapiens, UniProt P25090)
Construct: expressed in transfected cells; host or cells: CHO-Gal6 (CHO cells with G alpha 16)
Sequence (P25090 whole entry, species assumed): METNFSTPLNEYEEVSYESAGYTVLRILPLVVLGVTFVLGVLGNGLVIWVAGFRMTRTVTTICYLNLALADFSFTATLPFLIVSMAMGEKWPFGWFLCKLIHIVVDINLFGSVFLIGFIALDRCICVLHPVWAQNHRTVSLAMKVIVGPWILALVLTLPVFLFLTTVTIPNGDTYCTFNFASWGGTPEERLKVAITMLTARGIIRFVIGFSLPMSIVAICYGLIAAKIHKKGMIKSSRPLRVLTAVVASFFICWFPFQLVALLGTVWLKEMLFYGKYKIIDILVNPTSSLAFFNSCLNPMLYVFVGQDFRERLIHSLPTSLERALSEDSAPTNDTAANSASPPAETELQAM
Assay: compound-induced calcium activity on FLIPR Tetra in CHO-Gal6 cells stably expressing FPRL1
Format: cell-based
Conditions: relative efficacy, calcium, FLIPR Tetra
quantity.kind: FPRL1 (rel. eff.)

INSERT INTO results (compound, result) VALUES
  ('O=C(O)[C@@H]1[C@H](C(=O)Nc2ccc(OC(F)(F)F)cc2)[C@@H]2CC[C@H]1C21CC1 (racemic) [Compound 41]', 0.80),
  ('O=C(O)C1C(C(=O)Nc2ccc(Br)cn2)C2C=CC1C21CC1 (racemic) [Compound 25]', 0.74),
  ('CSc1ccc(NC(=O)[C@H]2[C@@H](C(N)=O)[C@H]3CC[C@@H]2C32CC2)cc1 (racemic) [Compound 67]', 0.91),
  ('CCOC(=O)C1C(C(=O)Nc2ccc(I)cc2)C2C=CC1C21CC1 (racemic) [Compound 17]', 0.76),
  ('CN(C)C(=O)C1C(C(=O)Nc2ccc(Br)cc2)C2C=CC1C21CC1 (racemic) [Compound 76]', 0.5),
  ('CCNC(=O)[C@@H]1[C@H](C(=O)Nc2ccc(Br)cc2)[C@@H]2CC[C@H]1C21CC1 (racemic) [Compound 78]', 0.95),
  ('O=C(O)C1C(C(=O)Nc2cccc(C(F)(F)F)c2)C2C=CC1C21CC1 (racemic) [Compound 27]', 0.72),
  ('CS(=O)(=O)c1ccc(NC(=O)[C@H]2[C@@H](C(=O)O)[C@H]3CC[C@@H]2C32CC2)cc1 [Compound 45]', 0.86),
  ('CNC(=O)[C@@H]1[C@H](C(=O)Nc2ccc(Br)cc2)[C@@H]2CC[C@H]1C21CC1 (racemic) [Compound 77]', 0.95),
  ('O=C(O)C1C(C(=O)Nc2ccc(SC(F)(F)F)cc2)C2C=CC1C21CC1 (racemic) [Compound 4]', 0.84),
  ('NC(=O)[C@@H]1[C@H](C(=O)Nc2ccc(I)cc2)[C@@H]2CC[C@H]1C21CC1 (racemic) [Compound 51]', 0.87),
  ('O=C(Nc1ccc(Br)cc1)[C@H]1[C@@H](C=NO)[C@H]2CC[C@@H]1C21CC1 (racemic) [Compound 92]', 0.5),
  ('O=C(O)C1C(C(=O)Nc2ccc(Br)cc2)C2CCC1C21CC1 (racemic) [Compound 10A]', 0.82),
  ('CSc1ccc(NC(=O)C2C(C(N)=O)C3C=CC2C32CC2)cc1 (racemic) [Compound 63]', 0.9),
  ('CC(C)=C1C2CCC1C(C(=O)Nc1ccc(Br)cc1)C2C(=O)O (racemic) [Compound 24]', 0.89),
  ('CC(C)OC(=O)[C@@H]1[C@H](C(=O)Nc2ccc(Br)cc2)[C@@H]2CC[C@H]1C21CC1 (racemic) [Compound 86]', 1.0),
  ('CCc1ccc(NC(=O)[C@H]2[C@@H](C(N)=O)[C@H]3CC[C@@H]2C32CC2)cc1 (racemic) [Compound 52]', 0.97),
  ('CSc1ccc(NC(=O)[C@H]2[C@@H](C(=O)O)[C@H]3CC[C@@H]2C32CC2)cc1 (racemic) [Compound 42]', 0.96),
  ('CCc1ccc(NC(=O)C2C(C(=O)O)C3C=CC2C32CC2)cc1 (racemic) [Compound 36]', 0.91),
  ('O=C(O)C1C(C(=O)Nc2ccc(-c3ccccc3)cc2)C2C=CC1C21CC1 (racemic) [Compound 26]', 0.69),
  ('CCc1ccc(NC(=O)[C@H]2[C@@H](C(N)=O)[C@H]3CC[C@@H]2C3(C)C)cc1 (racemic) [Compound 57]', 0.95),
  ('NC(=O)C1C(C(=O)Nc2ccc(Br)cc2)C2CCC1C21CC1 (racemic) [Compound 46B]', 0.91);
